tested on: A375 (melanoma); assay: SRB cytotoxicity assay, A375; type: cell-based, human; conditions: Homo sapiens, A-375, 72 h of treatment, mean ± standard mean error
Measured endpoint: EC50 (µM)
Output spec: scalar in µM, unitless text.

input: Please look up its EC50: CC(=O)O[C@H]1CC[C@@]2(C)C(CC[C@]3(C)C2CC=C2C4CC(C)(C)CC[C@]4(C(=O)O)CC[C@]23C)C1(C)C (stereo partly shown)
output: 13

###

Counter-ions that a name gives are not always drawn.
The following molecules are shown together with reported melting point values.

Consider the following illustrative entries.
{"columns": ["Molecule", "melting point"],
 "data": [
  ["CC(=O)O[C@H]1CC[C@@]2(C)C(CC[C@]3(C)C2CC=C2C4CC(C)(C)CC[C@]4(C(=O)N4CCNCC4)CC[C@]23C)C1(C)C (stereo partly drawn)", "172 to 175 °C"],
  ["CC(=O)O[C@H]1CC[C@@]2(C)C(CC[C@]3(C)C2CC=C2C4CC(C)(C)CC[C@]4(C(=O)N4CCCNCC4)CC[C@]23C)C1(C)C (stereo partly drawn)", "182 to 185 °C"],
  ["CCN(CC)c1ccc2c(-c3ccccc3C(=O)N3CCN(C(=O)[C@]45CC[C@@H](C(C)=O)C4C4CCC6[C@@]7(C)CC[C@H](OC(C)=O)C(C)(C)C7CC[C@@]6(C)[C@]4(C)CC5)CC3)c3ccc(=[N+](CC)CC)cc-3oc2c1 (stereo partly drawn) (as salt: chloride)", "247 to 254 °C"]
]}

input: Please look up its melting point: C=C(C)[C@@H]1CC[C@]2(C(=O)N3CCCN(C(=O)c4ccccc4-c4c5ccc(=[N+](CC)CC)cc-5oc5cc(N(CC)CC)ccc45)CC3)CC[C@]3(C)C(CCC4[C@@]5(C)CC[C@H](OC(C)=O)C(C)(C)C5CC[C@]43C)C12 (stereo partly drawn) (as salt: chloride) (hydrate or solvate)
output: 261 to 266 °C

input: Please look up its melting point: CCN(CC)c1ccc2c(-c3ccccc3C(=O)N3CCCN(C(=O)[C@]45CC[C@@H](C(C)=O)C4C4CCC6[C@@]7(C)CC[C@H](OC(C)=O)C(C)(C)C7CC[C@@]6(C)[C@]4(C)CC5)CC3)c3ccc(=[N+](CC)CC)cc-3oc2c1 (stereo partly drawn) (as salt: chloride)
output: 248 to 250 °C (dec.)

input: Please look up its melting point: CC(=O)O[C@H]1CC[C@@]2(C)C(CC[C@]3(C)C2CC=C2C4[C@@H](C)[C@H](C)CC[C@]4(C(=O)N4CCNCC4)CC[C@]23C)C1(C)C (stereo partly drawn)
output: 187 to 190 °C
